Target: T1, orthogonal hCD122 receptor (hoRb), hCD122 with H133D and Y134F (human, UniProt P14784 27-550)
T1 sequence: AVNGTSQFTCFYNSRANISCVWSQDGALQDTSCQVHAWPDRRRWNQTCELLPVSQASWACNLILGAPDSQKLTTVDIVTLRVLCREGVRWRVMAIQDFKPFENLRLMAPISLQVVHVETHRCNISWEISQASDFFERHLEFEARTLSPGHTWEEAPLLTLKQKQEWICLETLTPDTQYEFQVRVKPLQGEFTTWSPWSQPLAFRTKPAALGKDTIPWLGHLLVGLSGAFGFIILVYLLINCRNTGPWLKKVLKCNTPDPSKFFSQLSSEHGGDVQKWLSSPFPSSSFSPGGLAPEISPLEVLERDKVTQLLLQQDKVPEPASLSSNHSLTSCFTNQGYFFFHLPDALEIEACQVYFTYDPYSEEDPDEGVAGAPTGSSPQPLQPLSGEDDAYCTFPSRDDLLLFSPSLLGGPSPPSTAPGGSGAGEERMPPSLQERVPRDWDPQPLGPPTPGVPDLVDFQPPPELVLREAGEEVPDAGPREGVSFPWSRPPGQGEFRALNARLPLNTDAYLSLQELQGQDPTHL
Assay: cell-based or functional assay
Answer 0.0 if 3F8 Ortho Proliferation Signal 1:10 is under 30000 cts/min, and 1.0 if it is 30000 cts/min or more.

Completed entries (count: 4):
L18E, SQVLKA (ligand) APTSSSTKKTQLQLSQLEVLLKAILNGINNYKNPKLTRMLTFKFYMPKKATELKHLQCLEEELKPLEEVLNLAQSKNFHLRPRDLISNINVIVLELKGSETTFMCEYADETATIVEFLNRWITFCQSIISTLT: 0.0
ΔL19, SQ_LKA (ligand) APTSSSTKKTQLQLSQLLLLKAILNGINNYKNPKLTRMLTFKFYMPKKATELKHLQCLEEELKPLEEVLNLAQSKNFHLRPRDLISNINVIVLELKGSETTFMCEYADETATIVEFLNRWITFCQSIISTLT: 0.0
L18S, SQVLKA (ligand) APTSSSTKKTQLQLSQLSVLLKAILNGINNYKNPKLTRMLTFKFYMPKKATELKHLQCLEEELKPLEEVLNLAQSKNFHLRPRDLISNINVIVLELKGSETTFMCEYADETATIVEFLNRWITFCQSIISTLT: 1.0
Q74H, SQVLKA (ligand) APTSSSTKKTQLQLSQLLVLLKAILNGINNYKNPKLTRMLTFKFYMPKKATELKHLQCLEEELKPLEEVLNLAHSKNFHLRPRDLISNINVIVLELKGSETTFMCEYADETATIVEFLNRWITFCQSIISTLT: 0.0

Alright, here's another binder for you.
## Task Hi team, for R81I, SQVLKA (ligand) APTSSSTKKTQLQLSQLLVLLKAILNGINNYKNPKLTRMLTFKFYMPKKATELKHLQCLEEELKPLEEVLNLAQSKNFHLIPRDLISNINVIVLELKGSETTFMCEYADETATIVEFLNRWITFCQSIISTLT , is the recorded 3F8 Ortho Proliferation Signal 1:10 at or above 30000 cts/min?
## Result 1.0
